assay: Peptide partition from solution to membrane followed by tryptophan intrinsic fluorescence titration; assay type: physicochemical; conditions: SUVs DOPC/DOPE/DOPG/Chol 4:3:2:1; ΔG=−RTln(KX); pH 7.4, 25 °C
attribute-measured: ΔG (free energy of membrane partition) (kcal/mol)
Unit kcal/mol implied. Number only.

Ac-QEAASLSAAVFGLGEASSAVAETVSGFFRGW-NH2 [Peptide P495]	-6.9

# substance Ac-EASSAVAETVSGFFRGW-NH2 [Peptide P509] ; its ΔG (free energy of membrane partition) = -6.7

# substance Ac-IIEKLANDYARKIDELGW-NH2 [Peptide P717] ; its ΔG (free energy of membrane partition) = -6.5

# substance Ac-AYFEKNLQARHEQLANSDGLRKMLADLQAGWNASS-NH2 [Peptide P737] ; its ΔG (free energy of membrane partition) = -5.8

----------
assay: Peptide partition from solution to membrane followed by tryptophan intrinsic fluorescence titration; type: physicochemical; details: SUVs DOPC/DOPE/DOPG/Chol 4:3:2:1; Trp fluorescence titration (exc. 280 nm, ratio 340/380 nm); 20 mM HEPES, 150 mM NaCl, pH 7.4; 25 °C
This section presents substances with their documented partition coefficient KX values.

Worked cases, partition coefficient KX given:
Ac-QEAASLSAAVFGLGEASSAVAETVSGFFRGW-NH2 [Peptide P495]	130 000
Ac-IIEKLANDYARKIDELGW-NH2 [Peptide P717]	60 000
Ac-AYFEKNLQARHEQLANSDGLRKMLADLQAGWNASS-NH2 [Peptide P737]	20 000

Proceeding to the next substance to report its partition coefficient KX.
# substance Ac-EASSAVAETVSGFFRGW-NH2 [Peptide P509] ; its partition coefficient KX = 80 000

----------
Experiment: Peptide partition from solution to membrane followed by tryptophan intrinsic fluorescence titration
Type: physicochemical
Conditions: SUVs DOPC; ΔG=−RTln(KX); pH 7.4, 25 °C; S.D. ±0.1 kcal/mol
Procedure: Small unilamellar vesicles (SUVs) were prepared at a lipid concentration of 10 mM from POPC and POPG at a molar ratio of 10:0 or 8:2 or from DOPC, DOPE, DOPG, Chol at molar ratio 10:0:0:0, 8:0:2:0, 7:3:0:0, 7:0:0:3, 6:3:0:1, and 4:3:2:1 in buffer A, as previously described. […] Fluorescence titrations were performed with a FP-8200 Jasco spectrofluorimeter, equipped with a Peltier-thermostated ETC-272T (25 °C). […] Fluorescence emission spectra were corrected for SUV light scattering. […]
Mark each entry 1 (yes) if its ΔG (free energy of membrane partition) sits below -7 kcal/mol, and 0 (no) for all others.

Ac-ASAHWGQAALQGAQAVAAAQALVHAIALMTQ-NH2 [P454 R12A]	1 (yes)

Prompt: ΔG (free energy of membrane partition) strictly < -7 kcal/mol for this substance? Ac-ASAHWGQEALQGAQAVAAAQELVHAIALMTQ-NH2 [P454 R12E]
Completion: 0 (no)

Prompt: ΔG (free energy of membrane partition) strictly < -7 kcal/mol for this substance? Ac-ASAHWGQQALQGAQAVAAAQRLVHAIALMTQ-NH2 [P454 R1Q]
Completion: 1 (yes)

Prompt: ΔG (free energy of membrane partition) strictly < -7 kcal/mol for this substance? Ac-ASAHWGQRALQGAQAVAAAQQLVHAIALMTQ-NH2 [P454 R2Q]
Completion: 1 (yes)

Prompt: ΔG (free energy of membrane partition) strictly < -7 kcal/mol for this substance? Ac-ASAHWGQKALQGAQAVAAAQKLVHAIALMTQ-NH2 [P454 R12K]
Completion: 1 (yes)
